// provenance: patent US9850203B2

# assayTarget: human autotaxin (ATX) (Homo sapiens (Human), UniProt Q13822)
pIC50: −log10 of the molar value.
experimentalReadout: pIC50

Previously resolved entries follow.
INSERT INTO assay_data (compound, assaytarget, experimentalreadout, recordedresult) VALUES
  ('Cc1c(Sc2cccc(C(=O)O)c2)c2ccc(Cl)c(F)c2n1CC(=O)N1CCC2(CC2)C1', 'human autotaxin (ATX) (Homo sapiens (Human), UniProt Q13822)', 'pIC50', '≥ 6.30'),
  ('Cc1c(Sc2cccc(C(=O)O)c2)c2ccc(Cl)c(F)c2n1CC(=O)N1CCc2ccc(Cl)cc21', 'human autotaxin (ATX) (Homo sapiens (Human), UniProt Q13822)', 'pIC50', '≥ 6.30'),
  ('O=C(O)c1cccc(Sc2c(Cl)n(CC(=O)N3CC4(CCC4)c4ccccc43)c3c(F)c(Cl)ccc23)c1F', 'human autotaxin (ATX) (Homo sapiens (Human), UniProt Q13822)', 'pIC50', '≥ 6.30'),
  ('Cc1c(Sc2cccc(C(=O)O)c2)c2ccc(Cl)c(F)c2n1CC(=O)N1CCc2c(F)cc(F)cc21', 'human autotaxin (ATX) (Homo sapiens (Human), UniProt Q13822)', 'pIC50', '≥ 6.30'),
  ('Cc1c(Sc2cccc(C(=O)O)c2)c2ccc(Cl)c(F)c2n1CCC(=O)N1CCCC1', 'human autotaxin (ATX) (Homo sapiens (Human), UniProt Q13822)', 'pIC50', '≥ 6.30');

Exercise: Determine reported pIC50 for Cc1c(Sc2cccc(C(=O)O)c2)c2ccc(Cl)c(F)c2n1CC(=O)N1CCC2(CC1)CC(=O)N2 ; test system: human autotaxin (ATX) (Homo sapiens (Human), UniProt Q13822).
Solution: ≥ 6.30

Exercise: For human autotaxin (ATX) (Homo sapiens (Human), UniProt Q13822), give pIC50 of the listed compound: Cc1c(Sc2cccc(C(=O)O)c2)c2ccc(Cl)c(F)c2n1CC(=O)N1CCc2ccccc2C1
Solution: ≥ 6.30

Exercise: State recorded pIC50 with human autotaxin (ATX) (Homo sapiens (Human), UniProt Q13822), entry Cc1c(Sc2cccc(C(=O)O)c2)c2ccc(Cl)c(F)c2n1CC(=O)N1CCC2(CC1)CC(C#N)C2 , no comment.
Solution: ≥ 6.30

Exercise: Tell me pIC50 of Cc1c(Sc2cccc(C(=O)O)c2)c2ccc(Cl)c(F)c2n1CC(=O)N1CCC(Cc2ccncc2)C1 (stereo not shown) when tested on human autotaxin (ATX) (Homo sapiens (Human), UniProt Q13822).
Solution: ≥ 6.30

Exercise: Give reported pIC50 for Cc1c(Sc2cccc(C(=O)O)c2)c2ccc(Cl)c(F)c2n1CC(=O)N1CCC(Cc2ccc(F)cc2)C1 (single isomer, unassigned; enantiomer b) [Compound 1-66] (human autotaxin (ATX) (Homo sapiens (Human), UniProt Q13822))
Solution: 5.52 to 6.30

Exercise: For human autotaxin (ATX) (Homo sapiens (Human), UniProt Q13822), give the measured pIC50 of the entry Cc1c(Sc2cccc(C(=O)O)c2)c2ccc(Cl)c(F)c2n1CC(=O)N1CCc2cccnc21
Solution: 5.52 to 6.30

Exercise: Provide pIC50, system human autotaxin (ATX) (Homo sapiens (Human), UniProt Q13822), entry Cc1c(Sc2cccc(C(=O)O)c2)c2ccc(Cl)c(F)c2n1CC(=O)N1CCc2cc(Cl)ccc21
Solution: ≥ 6.30

Exercise: Find the measured pIC50 of Cc1c(Sc2cccc(C(=O)O)c2)c2ccc(Cl)c(F)c2n1CC(=O)N1CCc2ccccc21 with human autotaxin (ATX) (Homo sapiens (Human), UniProt Q13822) as test system.
Solution: ≥ 6.30
